Here the recorded Mean Peak Serum [INS] ± SD is given for each entry.
protocol.summary: Insulin oral delivery, serum human insulin by ELISA
condition.summary: rats, delivery agent compound 100 mg/kg, insulin 3 mg/kg, 1 ml/kg
A number alone suffices; assume μU/ml.

O=C(O)C=Cc1ccccc1OCCCCCCCC(=O)O ... 47.2162
CC(=O)c1ccccc1OCc1ccc(C(=O)O)cc1 ... 74.237

Request: Entry `CC(=O)c1ccccc1OCCCCC(=O)O` needs its Mean Peak Serum [INS] ± SD filled in; supply it.
Result: 63.5884

Request: Entry `CCC(=O)c1ccc(OCCCCCCCC(=O)O)cc1` needs its Mean Peak Serum [INS] ± SD filled in; supply it.
Result: 7.843

Request: Entry `O=C(O)CCCCCOc1ccccc1` needs its Mean Peak Serum [INS] ± SD filled in; supply it.
Result: 1332.2

Data credit: patent US8410309B2
